# test.target: IDH1 R132H (Homo sapiens, UniProt O75874, R132H)
# Sequence (O75874 whole entry R132H): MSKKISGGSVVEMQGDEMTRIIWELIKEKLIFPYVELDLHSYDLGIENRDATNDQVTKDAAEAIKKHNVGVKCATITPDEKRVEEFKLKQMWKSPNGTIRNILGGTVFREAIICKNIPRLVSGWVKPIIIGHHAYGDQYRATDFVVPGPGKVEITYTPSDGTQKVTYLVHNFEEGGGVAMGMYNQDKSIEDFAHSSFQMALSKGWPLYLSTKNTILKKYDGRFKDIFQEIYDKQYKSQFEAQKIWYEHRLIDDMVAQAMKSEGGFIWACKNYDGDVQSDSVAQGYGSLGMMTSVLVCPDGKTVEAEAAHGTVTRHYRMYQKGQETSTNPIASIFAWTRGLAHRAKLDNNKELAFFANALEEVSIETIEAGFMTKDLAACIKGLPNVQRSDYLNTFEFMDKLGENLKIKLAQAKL
# assay.details: IDH1 R132H enzymatic assay (NADPH depletion coupled to diaphorase/resazurin)
# Type: biochemical
# recorded.conditions: enzymatic inhibition, IDH1 R132H
pIC50: −log10 of the molar value.
Below: a set of entries, each annotated with reported pIC50.

Here's what some known entries look like.
[
  {
    "compound": "CC1(C)CC(=O)c2cc(-c3nc(-c4ccc(Cl)cc4)cs3)c(=O)n(-c3cc(Cl)ccc3Cl)c2C1",
    "pIC50": "5.30 to 6.00"
  },
  {
    "compound": "COc1ncc(Cl)cc1-n1c(C=C(C)C)c(C(=O)N2CCNCC2)cc(-c2nc(-c3ccc(Cl)cc3)cs2)c1=O",
    "pIC50": "> 6.52"
  },
  {
    "compound": "CCc1cccc(CC)c1-n1c(C(C)OC)c(C(=O)N2CCNCC2)cc(-c2nc(-c3ccc(Cl)cc3)cs2)c1=O (stereo not drawn)",
    "pIC50": "> 6.52"
  },
  {
    "compound": "O=C1CCCc2c1cc(-c1nc(-c3ccc(Cl)cc3)cs1)c(=O)n2-c1ccccc1C(F)(F)F",
    "pIC50": "6.00 to 6.52"
  },
  {
    "compound": "COc1cccc(-n2c3c(cc(-c4nc(-c5ccc(Cl)cc5)cs4)c2=O)C(=O)CC(C)(C)C3)c1OC",
    "pIC50": "5.30 to 6.00"
  },
  {
    "compound": "CN1CCN(Cc2ccccc2-n2c3c(cc(-c4nc(-c5ccc(Cl)cc5)cs4)c2=O)C(=O)CCC3)CC1",
    "pIC50": "4.70 to 5.30"
  }
]

Ask: Which pIC50 value belongs to `COc1cccc(OC)c1-n1c2c(cc(-c3nc(-c4ccc(Cl)cc4)cs3)c1=O)C(=O)CCC2` ?
Reply: 5.30 to 6.00
